Measured values drawn from patent US20030236190A1 for this set.

# TARGET: T1, Insulin receptor prepared according to Bass et al., 1996: soluble human insulin receptor-immunoglobulin heavy … (human, UniProt P06213 28-956)
# T1 construct: extracellular domain; Eu3+-labelled in TR-FRET; also called IR; sIR-Fc; not shown: immunoglobulin heavy chain constant domains that replace the transmembrane and i
# ASSAY_NAME: phage ELISA, vs IGF-1R
Positions of bridges follow the written chain, without caps; N, C: chain ends. No end group written: not given here.
The entries below are paired with their reported IR/IGF-1R Comparison.

BINDER | BOUND_OPERATOR | IR/IGF-1R Comparison [ratio]
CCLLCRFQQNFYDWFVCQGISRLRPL (disulfide (positions not given here); also: disulfide among the four cysteines, pairing not given here) [X2CA-2-B4-IGFR] | = | 0.3
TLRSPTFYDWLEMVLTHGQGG [20E22-1-A8-IGFR] | = | 0.2
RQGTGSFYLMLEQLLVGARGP [20E2B-4-G11-IGFR] | = | 0.1
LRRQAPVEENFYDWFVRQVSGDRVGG [H2CA-3-D7-IGFR] | = | 0.3
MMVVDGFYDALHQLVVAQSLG [20E2A-3-D10-IGFR] | = | 0.3
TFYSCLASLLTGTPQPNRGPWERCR (disulfide 5-24 (inferred)) [20C-3-G3-IGFR] | < | 0.1
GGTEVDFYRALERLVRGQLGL [20E23-3-D8-IGFR] | = | 0.1
